# experimentalTarget: Aminopeptidase N (Plasmodium falciparum FcB1/Columbia) (UniProt O96935)
# Sequence (O96935 whole entry): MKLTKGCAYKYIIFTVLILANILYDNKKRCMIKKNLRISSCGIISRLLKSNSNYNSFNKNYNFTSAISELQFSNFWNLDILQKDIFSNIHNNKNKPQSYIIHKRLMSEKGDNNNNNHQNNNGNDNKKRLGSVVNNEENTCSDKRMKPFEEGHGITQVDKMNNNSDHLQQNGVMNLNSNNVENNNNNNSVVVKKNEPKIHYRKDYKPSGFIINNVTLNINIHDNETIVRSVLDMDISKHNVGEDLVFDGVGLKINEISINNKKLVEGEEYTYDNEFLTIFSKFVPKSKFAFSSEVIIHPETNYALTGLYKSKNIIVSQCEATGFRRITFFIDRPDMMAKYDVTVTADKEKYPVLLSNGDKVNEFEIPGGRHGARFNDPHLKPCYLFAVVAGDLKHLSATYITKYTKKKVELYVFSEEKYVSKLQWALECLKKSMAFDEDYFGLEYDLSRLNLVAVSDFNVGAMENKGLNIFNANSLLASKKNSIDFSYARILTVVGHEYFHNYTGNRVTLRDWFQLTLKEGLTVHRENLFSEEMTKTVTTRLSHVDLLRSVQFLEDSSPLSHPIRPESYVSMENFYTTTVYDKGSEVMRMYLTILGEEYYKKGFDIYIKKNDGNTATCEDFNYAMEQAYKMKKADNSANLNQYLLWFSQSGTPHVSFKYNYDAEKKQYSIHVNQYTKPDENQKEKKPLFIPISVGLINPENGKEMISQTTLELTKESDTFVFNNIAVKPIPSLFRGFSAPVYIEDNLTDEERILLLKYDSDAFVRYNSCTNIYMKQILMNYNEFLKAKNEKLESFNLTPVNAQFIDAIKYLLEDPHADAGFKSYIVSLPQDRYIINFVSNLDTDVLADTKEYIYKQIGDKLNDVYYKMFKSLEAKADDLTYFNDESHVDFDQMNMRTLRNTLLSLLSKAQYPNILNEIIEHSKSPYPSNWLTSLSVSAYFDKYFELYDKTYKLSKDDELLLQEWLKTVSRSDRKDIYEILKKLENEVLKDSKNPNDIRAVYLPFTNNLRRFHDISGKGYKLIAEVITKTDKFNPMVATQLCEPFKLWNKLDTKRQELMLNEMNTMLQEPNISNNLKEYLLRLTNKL
# procedureText: Inhibition of Plasmodium falciparum FcB1 M1 aminopeptidase at 10 uM
Mark y for reported inhibition of 30% or greater; mark n for anything smaller.

O=C(NO)C(Cc1ccccc1)C(=O)NCc1ccccc1 (configuration not stated)
y
CC(C)CC(C(=O)NO)C(=O)NCc1ccc(Cl)cc1 (configuration not stated)
y
CC(C)CN(CCCCc1ccccc1)C(=O)CC(=O)NO
n
O=C(NO)C(Cc1cccc(Oc2ccccc2)c1)C(=O)NCCc1ccccc1 (configuration not stated)
y
O=C(NO)C(Cc1cccc(Oc2ccccc2)c1)C(=O)N1CCN(C(c2ccccc2)c2ccccc2)CC1 (configuration not stated)
n
CC(C)CC(C(=O)NO)C(=O)N1CCC(n2c(=O)[nH]c3ccccc32)CC1 (configuration not stated)
n
O=C(CC(=O)NCCCc1ccccc1)NO
n
O=C(CC(=O)N1CCc2ccccc2C1)NO
n
NC(C(=O)NO)C(=O)NCc1cccc(Oc2ccccc2)c1 (configuration not stated)
y
O=C(NO)C(Cc1cccc(Oc2ccccc2)c1)C(=O)NCc1ccccc1 (configuration not stated)
y
NC(C(=O)NO)C(=O)N1CCN(C(c2ccccc2)c2ccccc2)CC1 (configuration not stated)
n
NC(C(=O)NO)C(=O)N1CCN(Cc2ccc3c(c2)OCO3)CC1 (configuration not stated)
n
O=C(NO)C(Cc1ccccc1)C(=O)NCc1ccc(Cl)cc1 (configuration not stated)
y
O=C(NO)C(Cc1ccccc1)C(=O)NCCNc1cccc2ccccc12 (configuration not stated)
y
O=C(NO)C(Cc1ccccc1)C(=O)NCCc1ccccc1 (configuration not stated)
y
O=C(NO)C(Cc1cccc(Oc2ccccc2)c1)C(=O)N[C@H]1CCN(Cc2ccccc2)C1 (some centres not stated)
y
O=C(NO)C(Cc1ccccc1)C(=O)NCc1cccc(-c2ccccc2)c1 (configuration not stated)
y
O=C(NO)C(Cc1cccc(Oc2ccccc2)c1)C(=O)NCc1cccc(-c2ccccc2)c1 (configuration not stated)
y
O=C(NO)C(Cc1ccccc1)C(=O)NCCCCc1ccccc1 (configuration not stated)
y
O=C(CC(=O)N1CCC(n2c(=O)[nH]c3ccccc32)CC1)NO
n
O=C(CC(=O)N1CCC2(CCNc3ccccc3O2)CC1)NO
n
CN(Cc1ccccc1)C(=O)CC(=O)NO
n
NC(C(=O)NO)C(=O)N1CCN(Cc2ccccc2)CC1 (configuration not stated)
n
O=C(CC(=O)N[C@H]1CCN(Cc2ccccc2)C1)NO
n
Cc1ccccc1CNC(=O)CC(=O)NO
y
CC(C)CC(C(=O)NO)C(=O)NCc1cccnc1 (configuration not stated)
n
CC(C)CC(C(=O)NO)C(=O)NC1CCN(Cc2ccccc2)CC1 (configuration not stated)
n
CC(C)CN(CCCCc1ccccc1)C(=O)C(N)C(=O)NO (configuration not stated)
y
CC(C)CC(C(=O)NO)C(=O)N(CCc1ccccc1)Cc1ccccc1 (configuration not stated)
y
O=C(NO)C(Cc1cccc(Oc2ccccc2)c1)C(=O)NC1Cc2ccccc2C1 (configuration not stated)
y
NC(C(=O)NO)C(=O)NCCC(c1ccccc1)c1ccccc1 (configuration not stated)
n
O=C(NO)C(Cc1ccccc1)C(=O)N1CCc2ccccc2C1 (configuration not stated)
y
O=C(NO)C(Cc1ccccc1)C(=O)N[C@H]1CCN(Cc2ccccc2)C1 (some centres not stated)
y
CC(C)CC(C(=O)NO)C(=O)NCc1cccc(-c2ccccc2)c1 (configuration not stated)
y
O=C(NO)C(Cc1ccccc1)C(=O)N1CCC(n2c(=O)[nH]c3ccccc32)CC1 (configuration not stated)
n
CC(C)CC(C(=O)NO)C(=O)N1CCN(c2ccccc2)CC1 (configuration not stated)
y
O=C(CC(=O)NCCNc1cccc2ccccc12)NO
n
O=C(CC(=O)NC1CCN(Cc2ccccc2)CC1)NO
n
O=C(CC(=O)NCCCCc1ccccc1)NO
n
NC(C(=O)NO)C(=O)NCc1ccc(F)cc1 (configuration not stated)
n
O=C(NO)C(Cc1cccc(Oc2ccccc2)c1)C(=O)N1CCC2(CCNc3ccccc3O2)CC1 (configuration not stated)
y
CC(C)CC(C(=O)NO)C(=O)NCCCCc1ccccc1 (configuration not stated)
y
O=C(NO)C(Cc1cccc(Oc2ccccc2)c1)C(=O)N1CCC(Cc2ccccc2)CC1 (configuration not stated)
y
NC(C(=O)NO)C(=O)N[C@H]1CCN(Cc2ccccc2)C1 (some centres not stated)
n
CC(C)CC(C(=O)NO)C(=O)N(C)CCCCc1ccccc1 (configuration not stated)
n
O=C(NO)C(Cc1cccc(Oc2ccccc2)c1)C(=O)NCc1ccc(F)cc1 (configuration not stated)
y
